assay: chemical genetic growth profiling, strain panel (AID 1159580);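 note: tested at 20 µM; growth read once vehicle control cultures reached saturation at 30 °C; 1 = growth at the plate median or of vehicle wells; lower values mean less growth of the strain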; conditions: S. cerevisiae deletion strains, growth OD, locus YFL029C, strain CAK1, stronger effect = lower value
In all, about 5,500 compounds went through this assay and about 2,000 (36%) were called active. Another 18% or so got no clear call; they are omitted. Some of the results follow.
Assignment: determine reported normalized growth for the given compounds.
Numbers only.

Solved entries (count: 5):
| COMPOUND | PARAMETER | RESULT |
| --- | --- | --- |
| Cc1cc(Cl)ccc1NC(=S)NNC(=S)Nc1ccc(F)cc1 | normalized growth | 0.965 |
| N#CCC(=O)NNC(=S)Nc1ccc(Cl)c(Cl)c1 | normalized growth | 0.989 |
| CC(=O)c1sc(SCCS(=O)(=O)c2ccc(C)cc2)c2c1CC(C)(C)CC2=O | normalized growth | 0.986 |
| COc1ccc(C(=O)CSC2=NCCc3ccccc32)cc1 | normalized growth | 0.972 |
| CC(C)c1ccc(NCC(O)CSc2ccccc2)cc1 (stereo unspecified) | normalized growth | 0.952 |

Could you now look at the following compound, please?
Name the recorded normalized growth for N#CC(C#N)=C/C=C(/Sc1ccc(F)c(Cl)c1)c1ccc(Cl)cc1 .
0.951

* * *

assay: chemical genetic growth profiling, strain panel (AID 1159580);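 note: tested at 20 µM; growth read once vehicle control cultures reached saturation at 30 °C; 1 = growth at the plate median or of vehicle wells; lower values mean less growth of the strain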; conditions: S. cerevisiae deletion strains, growth OD, locus YNL298W, strain CLA4 (second series)
About 2,000 (36%) of roughly 5,500 compounds were called active. Another 18% or so got no clear call; they are omitted. Cut-off read from the data, not from the text of the source: active = normalized growth mostly below about 0.91 (no sharp cut-off); inconclusive = no clear call, values can overlap the other calls; inactive = mostly above about 0.92. Some of the results follow.
Select the correct class. Options are active, inactive and nothing else.

As a guide, the following entries are already answered.
| COMPOUND | CLASSIFICATION |
| --- | --- |
| COc1ccc(CCNC(=S)Nc2cccc(C(F)(F)F)c2)cc1OC | inactive |
| CC(C)(C)C(=O)NC(=S)Nc1cccc(C(F)(F)F)c1 | active |
| CC1CCN(C(=O)CC#N)CC1 | inactive |
| CSc1ccc(/C=C/[N+](=O)[O-])cc1 | active |
| COC(=O)c1cc(OC)c(OC)cc1-n1c(C)ccc1C | inactive |

I'd appreciate the recorded outcome for Cc1c(Cl)cccc1NC(=S)Nc1ccc(Cl)cc1C(=O)c1ccccc1 from this test.
inactive

I'd appreciate the recorded outcome for NC(=O)c1ccccc1N1CCCCC1 from this test.
inactive

I'd appreciate the recorded outcome for CCC(C(=O)Nc1ccc(C(F)(F)F)cc1)c1ccccc1 (configuration not stated) from this test.
inactive

I'd appreciate the recorded outcome for CC(C)c1ccc(NC(=S)NC(=O)c2ccc(C(F)(F)F)cc2)cc1 from this test.
inactive

* * *

experiment: chemical genetic growth profiling, strain panel (AID 1159580);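 note: tested at 20 µM; growth read once vehicle control cultures reached saturation at 30 °C; 1 = growth at the plate median or of vehicle wells; lower values mean less growth of the strain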; settings: S. cerevisiae deletion strains, growth OD, locus YLR133W, strain CKI1
About 2,000 (36%) of roughly 5,500 compounds were called active. Another 18% or so got no clear call; they are omitted. Cut-off read from the data, not from the text of the source: active = normalized growth mostly below about 0.91 (no sharp cut-off); inconclusive = no clear call, values can overlap the other calls; inactive = mostly above about 0.92. This is one part of the list.
Select the correct class. Options are true (1) = active, false (0) = inactive and nothing else.

| COMPOUND | CLASSIFICATION |
| --- | --- |
| O=c1c(Cl)c(-n2cccn2)cnn1-c1ccc(Cl)cc1Cl | false (0) |
| O=S(=O)(N/N=C\c1ccc(Cl)cc1)c1ccc(-c2ccccn2)s1 | false (0) |
| O=[N+]([O-])c1cc(Br)cnc1Sc1nnc(SCC2CC2)s1 | true (1) |
| O=C(Nc1ccc(C(F)(F)F)cc1)N1CCN(c2ccnc3cc(Cl)ccc23)CC1 | false (0) |
| Cc1nn(Cc2ccc(C(=O)Sc3ccc(C(F)(F)F)cn3)o2)c(C)c1Br | false (0) |

I'd appreciate the recorded outcome for N#CCC(=O)NNC(=S)Nc1ccc(Cl)c(Cl)c1 from this test.
false (0)

I'd appreciate the recorded outcome for O=C1CSC(c2cccnc2)N1c1ccc(Cl)cc1Cl (stereo not drawn) from this test.
false (0)
